target: calcium-dependent protein kinase 1 (CDPK1, CDPK1^G; TGGT1_301440) (Toxoplasma gondii); assay: kinase assay with recombinant purified enzyme in excess calcium
quantity: pIC50
Numbers only, as −log10 of the molar value.

## Input Entry "Cc1cccc(Cc2nn(C(C)(C)C)c3ncnc(N)c23)c1" needs its pIC50 filled in; supply it.
## Output 7.10
